test system: CYP3A; experiment: Effect of brentuximab vedotin on midazolam PK; conditions: human, plasma, iv, 1 mg
Quantity: Cmax (ng/mL)
All answers are understood in ng/mL, so give the number only.

Quick note, Cmax for `Cc1ncc2n1-c1ccc(Cl)cc1C(c1ccccc1F)=NC2` landed at 73

====

system: CYP3A; assay: Effect of brentuximab vedotin on midazolam PK; conditions: human, plasma, iv, 1 mg
Quantity: half-life (h)
All answers are understood in h, so give the number only.

Quick note, half-life for `Cc1ncc2n1-c1ccc(Cl)cc1C(c1ccccc1F)=NC2` landed at 6.4

====

test system: CYP3A; experiment: Effect of brentuximab vedotin on midazolam PK; details: human, plasma, intravenous, 1 mg
Quantity: Tmax (min)
All answers are understood in min, so give the number only.

Quick note, Tmax for Cc1ncc2n1-c1ccc(Cl)cc1C(c1ccccc1F)=NC2 [Midazolam, midazolam] landed at 3
